molecular target: HLA-A*02:16; experiment: IEDB peptide-MHC binding, purified MHC/competitive/fluorescence; filed as Kd, often an IC50 or EC50 that approximates it; bounds were set here for any values at or beyond the usual limits of such assays; details: source organism: Escherichia coli 536
measured metric: Kd

[in] Provide only the value of recorded Kd for QTDNDIWFW
[out] ≥ 20 µM

###

molecular target: HLA-B*46:01; assay: IEDB peptide-MHC binding, purified MHC/competitive/fluorescence; filed as Kd, often an IC50 or EC50 that approximates it; bounds were set here for any values at or beyond the usual limits of such assays; conditions: source organism: Cryptosporidium parvum Iowa II
measured metric: Kd

[in] Give reported Kd value for ERTDLFFPV
[out] ≥ 20 µM

[in] Read the entry KLYLRPWWH and write its reported Kd.
[out] ≥ 20 µM
